biological target: E. coli DNA gyrase (Escherichia coli, UniProt P0AES6); construct: purchased Inspiralis; test: DNA supercoiling assay (Inspiralis); format: biochemical
quantity measured: activity at GyrB / DNA gyrase in vitro (in words)

CC(C)Cc1cc(-c2nnsc2-c2ccccc2)c(O)cc1O; no inhibition
O=c1nc(SCc2cc(F)cc(C(F)(F)F)c2)nc(SCc2ccccc2F)[nH]1; inactive
COc1ccc(-c2snnc2-c2cc(Cl)c(O)cc2O)cc1; no inhibition
O=c1nc(SCc2cc(F)cc(C(F)(F)F)c2)nc(SCc2ccc(Cl)cc2)[nH]1; inactive

Shift focus to the following entry.
Lab note: need activity at GyrB / DNA gyrase in vitro (in words) for NS(=O)(=O)c1c(F)c(F)c(SCCO)c(F)c1NC1CCCCCCC1 on E. coli DNA gyrase (Escherichia coli, UniProt P0AES6), anyone have it? inactive
